- assay: chemical genetic growth profiling, strain panel (AID 1159580);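 note: tested at 20 µM; growth read once vehicle control cultures reached saturation at 30 °C; 1 = growth at the plate median or of vehicle wells; lower values mean less growth of the strain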
- settings: S. cerevisiae deletion strains, growth OD, locus YMR129W, hits give low values
About 2,000 (36%) of roughly 5,500 compounds were called active. Another 18% or so got no clear call; they are omitted. The list shows a part of the results.
As shown below, each of these compounds has a reported normalized growth value.
Please give the numeric answer without any surrounding text.

Known results for compounds:
COc1cc(C)c(C(=O)Oc2cc(C)c(C(=O)O)c(O)c2C)c(OC)c1C ... 0.97
CCC(=O)Nc1ccc(Cl)c(Cl)c1 ... 0.98
CC(=O)O[C@H]1C[C@@H](OC(C)=O)C(C)(C)C2CC(=O)[C@]3(C)C(CC[C@@]4(C)[C@H](c5ccoc5)OC(=O)[C@H]5O[C@]543)[C@]21C (stereo not given in full) ... 0.994
CN(C)C(=O)Nc1ccc(Cl)c(Cl)c1 ... 0.991
C/C=C/C(=O)N(CC)c1ccccc1C ... 1

[Q] Which value of normalized growth has been reported for C=C1C2CC[C@@]3(C)[C@H](c4ccoc4)OC(=O)C[C@]13O[C@H]1CC(=O)C(C)(C)C(CC(=O)OC)[C@@]21C (stereo not given in full) in the records?
[A] 0.985

====

- assay: chemical genetic growth profiling, strain panel (AID 1159580)
- settings: S. cerevisiae deletion strains, growth OD, locus YBR160W, strain CDC28
Hit rate of the full screen: of about 5,500 compounds, about 2,000 (36%) were called active. About 18% were inconclusive and are not listed. Cut-off read from the data, not from the text of the source: active = normalized growth mostly below about 0.91 (no sharp cut-off); inconclusive = no clear call, values can overlap the other calls; inactive = mostly above about 0.92. The list shows a part of the results.
Pick from active, inactive when you respond.

Cc1ccc(N2C(=O)CSC2c2ccc(Cl)c(Cl)c2)cc1Cl (stereo not given) ... inactive
Cc1c(S(=O)(=O)c2ccc(Cl)cc2)csc1C(=O)NNc1cccc(Cl)c1 ... inactive
Cc1nn(Cc2nnc(SCc3cccc(C(F)(F)F)c3)o2)c(C)c1Br ... inactive
O=C1CSC(c2ccc(C(F)(F)F)cc2)N1c1ccc(C(F)(F)F)cc1 (stereo not given) ... inactive

[Q] Call for entry CS(=O)(=O)c1sc(C(=O)Sc2ccc(Cl)cc2)c2c1C=CCC2 :
[A] active

====

- assay: chemical genetic growth profiling, strain panel (AID 1159580)
- settings: S. cerevisiae deletion strains, growth OD, locus YLR357W, strain rsc2, hits give low values
The campaign covered roughly 5,500 compounds. About 2,000 (36%) were called active. Inconclusive results (about 18%) are left out. Some of the results follow.
measured property: normalized growth
Just the number, please.

Below: 4 compounds and their reported normalized growth.
CC(CCC(=O)O)[C@H]1CCC2C3C(C[C@H](O)[C@@]21C)[C@@]1(C)CC[C@@H](O)C[C@H]1C[C@H]3O (stereo not given in full) ... 1.01
CC(=O)Nc1ccccc1 ... 0.967
COc1cc(S(C)=O)ccc1-c1nc2ncccc2[nH]1 (stereo not given) ... 0.915
CC(CCC(=O)O)[C@H]1CCC2C3CC[C@@H]4C[C@H](O)CC[C@]4(C)C3C[C@H](O)[C@@]21C (stereo not given in full) ... 1.01

[Q] Could you share which normalized growth value was measured for O=c1cc(-c2ccccc2)oc2cccc(O)c12 ?
[A] 1.01

[Q] Lookup O=C(O)CCCOc1ccc(Cl)cc1Cl
[A] 0.888

[Q] How about O=c1[nH]cnc2[nH]ncc12 ?
[A] 0.998

[Q] Can you check C[C@H](CCC(=O)O)[C@H]1CCC2C3C(CC[C@@]21C)[C@@]1(C)CC[C@@H](O)C[C@H]1C[C@H]3O (stereo not given in full) next?
[A] 1.09

[Q] Further, for CC12CC3CC(C)(C1)CC(N)(C3)C2 ?
[A] 0.969

====

- assay: chemical genetic growth profiling, strain panel (AID 1159580)
- settings: S. cerevisiae deletion strains, growth OD, locus YDL074C, strain BRE1, hits give low values
Out of some 5,500 compounds screened, about 2,000 (36%) were called active. Not shown: some 18% with an inconclusive outcome. Some of the results follow. Where a SMILES comes first, the peptide text is derived from it.
Under this convention, 1 denotes normalized growth strictly below 1 and -1 denotes normalized growth at or above 1.

Cc1cc(O)c(C=O)c2c1C(=O)Oc1c(C)c(O)c3c(c1O2)C(O)OC3=O (stereo unspecified) ... 1
O=c1cc(-c2ccccc2)oc2cc(O)c(O)c(O)c12 ... 1
Cc1cc(O)c(C=O)c2c1C(=O)Oc1c(COC(=O)/C=C/C(=O)O)c(O)c(C(=O)O)c(C)c1O2 ... 1
NC(N)=NCCCC(NC(=O)C(N)Cc1ccc(O)cc1)C(=O)O (stereo unspecified) ... -1
CC(=O)Nc1nnc(S(N)(=O)=O)s1 ... 1

[Q] Find out if reported normalized growth for NCCCCC(N)C(=O)NC(Cc1ccc(O)cc1)C(=O)NC(CCCCN)C(=O)O (stereo not drawn) (H-Lys-Tyr-Lys-OH; configuration not given here) is less than 1
[A] -1

====

- assay: chemical genetic growth profiling, strain panel (AID 1159580)
- settings: S. cerevisiae deletion strains, growth OD, locus YKL101W, strain HSL1
Among all 5,500 compounds or so, about 2,000 (36%) were called active. Inconclusive results (about 18%) are left out. Rule as the data show it: active = normalized growth mostly below about 0.91 (no sharp cut-off); inconclusive = no clear call, values can overlap the other calls; inactive = mostly above about 0.92. Some of the results follow.
Output constraint: value belongs to yes (active), no (inactive)

S=C(Nc1cc(Cl)c(Cl)cc1Cl)Nc1ccccc1Br ... no
CNC(=O)n1nc(C)c(Cc2csc3ccc(Cl)cc23)c1C ... no
NNC(=O)c1csc(Cc2c(Cl)sc3ccc(Cl)cc23)n1 ... no
O=S(=O)(Nc1ccc(Oc2ccc(OC(F)(F)F)cc2)cc1)c1cccc(Cl)c1 ... no
COc1ccc(OC)c(-c2ccn[nH]2)c1OCc1ccccc1 ... no

[Q] In this assay, the call recorded for O=[N+]([O-])c1ccc(-c2csc(Nc3ccncc3)n2)cc1 was what?
[A] no

[Q] Now this one: COc1cc(CC/C(C)=N\O)ccc1OCc1ccc(Cl)c(Cl)c1
[A] no

[Q] Same question, COc1ccc(CC2CCC(=NOC(=O)c3ccc(C(C)(C)C)cc3)CC2)cc1 (stereo unspecified) this time
[A] no

[Q] Cool, now CC1(C)c2ccccc2N(CCC(N)=O)C12C=Cc1c(ccc3ccccc13)O2 (stereo unspecified)
[A] no

[Q] Try this compound next: Cc1onc(-c2ccccc2)c1C(=O)Sc1ccc(C(F)(F)F)cn1
[A] no

[Q] Do the same for Oc1ccc(N=Nc2ccccn2)c(O)c1 please
[A] yes

====

- assay: chemical genetic growth profiling, strain panel (AID 1159580);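 note: tested at 20 µM; growth read once vehicle control cultures reached saturation at 30 °C; 1 = growth at the plate median or of vehicle wells; lower values mean less growth of the strain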
- settings: S. cerevisiae deletion strains, growth OD, locus YER155C, strain BEM2, hits give low values
In all, about 5,500 compounds went through this assay and about 2,000 (36%) were called active. Roughly 18% stayed inconclusive and do not appear here. The list shows a part of the results.
// reported normalized growth for each item listed
Keep the answer to the number alone.

Example entries and their recorded answers appear below.
NNCCc1ccccc1 ... 1
COc1c2ccccc2nc2occc12 ... 1.02
COc1c2ccoc2nc2c(OC)c(OCC(O)C(C)(C)O)ccc12 (configuration not stated) ... 0.996
COc1cc2c(cc1O)C(Cc1ccc(O)cc1)N(C)CC2 (configuration not stated) ... 1.01
COc1cc(OC)c2c3c1C(=O)c1c(OC)cc(C)c4c(OC)cc(c-3c14)C(C)(C)C2=O ... 1.01

[Q] Look up normalized growth: COc1ccc(C(=O)N2CCCC2=O)cc1
[A] 0.995

[Q] Another compound: CCN(CCCc1ccccc1)CCCc1ccccc1
[A] 0.999

====

- assay: chemical genetic growth profiling, strain panel (AID 1159580);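 note: tested at 20 µM; growth read once vehicle control cultures reached saturation at 30 °C; 1 = growth at the plate median or of vehicle wells; lower values mean less growth of the strain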
- settings: S. cerevisiae deletion strains, growth OD, locus YHR079C, strain IRE1, hits give low values
Screen size: about 5,500 compounds; about 2,000 (36%) were called active. Roughly 18% stayed inconclusive and do not appear here. Some of the results follow.
normalized growth overview
// no unit, no text: just the number

Take a look at these entries with their results.
COc1ccc(C(=O)NCc2csc3ccc(Cl)cc23)cc1OC ... 1.01
CNC(=O)n1nc(C)c(Cc2csc3ccc(Cl)cc23)c1C ... 0.893
O=C(O)CCCOc1ccc(Cl)cc1Cl ... 0.757

[Q] Suppose we examine the compound CNCCCN1c2ccccc2CCc2ccccc21 ; what normalized growth value has been reported?
[A] 1.01

[Q] Same question for CN(C)CCOC(=O)C(c1ccccc1)C1(O)CCCC1 (stereo not given) please.
[A] 1

====

Overview of recorded normalized growth for various molecules
- assay: chemical genetic growth profiling, strain panel (AID 1159580);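 note: tested at 20 µM; growth read once vehicle control cultures reached saturation at 30 °C; 1 = growth at the plate median or of vehicle wells; lower values mean less growth of the strain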
- settings: S. cerevisiae deletion strains, growth OD, locus YPR025C, strain CCL1, hits give low values
Screen size: about 5,500 compounds; about 2,000 (36%) were called active. Roughly 18% stayed inconclusive and do not appear here. This is one part of the list.
Lab note: jot the number down without any unit.

Examples with answers:
O=C(CCn1c(=O)oc2ccccc21)Sc1ccc(C(F)(F)F)cc1 ... 0.956
CSC(=NNc1ccccc1)NC(=O)c1c(Cl)cccc1Cl ... 0.968
NNC(=O)c1csc(Cc2c(Cl)sc3ccc(Cl)cc23)n1 ... 0.995
O=C(Nc1ccc(F)c(Cl)c1)c1ccccc1O ... 0.894
CC1C/C(=N/Nc2ccc(Br)cc2)c2cc(Cl)ccc2S1 (configuration not stated) ... 0.41
O=[N+]([O-])c1ccc(-c2csc(Nc3ccncc3)n2)cc1 ... 0.985
CNC(=O)n1nc(C)c(Cc2csc3ccc(Cl)cc23)c1C ... 0.998
CC1C/C(=N/Nc2ccc(Br)cc2)c2cc(Cl)ccc2S1(=O)=O (configuration not stated) ... 0.995
CS(=O)(=O)/C(C#N)=C/c1ccccc1OCc1c(Cl)cccc1Cl ... 0.969
CC1(C)c2ccccc2N(CCC(N)=O)C12C=Cc1c(ccc3ccccc13)O2 (configuration not stated) ... 0.973

[Q] Value lookup for normalized growth; key = O=S(=O)(Nc1ccc(Oc2ccc(OC(F)(F)F)cc2)cc1)c1cccc(Cl)c1
[A] 0.977

[Q] // next record Cc1ccc(S(=O)(=O)Nc2ccc(Oc3ccc(F)cc3)cc2)cc1
[A] 0.984

[Q] Entry C/C(=N/Nc1ccccc1)c1cc(Cl)cc(Cl)c1O please
[A] 0.963

[Q] Here is the next molecule: O=C1CSC(c2ccc(C(F)(F)F)cc2)N1c1ccc(C(F)(F)F)cc1 (configuration not stated)
[A] 0.998

[Q] Try this molecule too: Cc1ccc(N2C(=O)CSC2c2ccc(Cl)c(Cl)c2)cc1Cl (configuration not stated)
[A] 0.977

[Q] Could you do the same for Oc1ccc(N=Nc2ccccn2)c(O)c1 , please?
[A] 0.0983

[Q] Would you mind doing S=C(NNc1ccccc1)Nc1cc(Cl)ccc1Cl as well?
[A] 0.96
